# target_entity: human CD33 on CD33-expressing THP-1 cells (human, UniProt P20138 18-364)
# Sequence (P20138 18-364): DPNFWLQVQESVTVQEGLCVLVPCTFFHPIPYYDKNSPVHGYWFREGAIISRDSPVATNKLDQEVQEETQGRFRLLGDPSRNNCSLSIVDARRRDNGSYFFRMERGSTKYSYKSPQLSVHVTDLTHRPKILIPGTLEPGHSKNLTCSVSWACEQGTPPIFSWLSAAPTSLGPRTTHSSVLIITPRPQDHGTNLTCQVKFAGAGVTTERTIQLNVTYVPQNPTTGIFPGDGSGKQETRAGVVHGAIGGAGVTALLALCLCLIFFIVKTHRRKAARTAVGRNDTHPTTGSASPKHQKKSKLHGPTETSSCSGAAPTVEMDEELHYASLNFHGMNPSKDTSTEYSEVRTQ
# run_description: cell-based or functional assay
property_measured: Cytotox EC50 (nM) Donor 156
Respond with the bare value in nM.

### Prompt Can you share its Cytotox EC50 (nM) Donor 156? I mean this binder: scFv-VHH bispecific molecule JL6 x 6H4 (scFv (VL-L-VH)-L-VHH with C-tag) (bispecific antibody) QSVLTQPPSASGTPGQRVTISCSGSSSNIGSNPVNWYQQLPGTAPKLLIYSNNQRPSGVPDRFSGSKSGTSASLAISGLQSEDEADYFCAAWDDSLNGPVFGGGTKLTVLGGSEGKSSGSGSESKSTGGSQVQLQESGPGLVKPSETLSLTCTVSGGSISSYYWGWIRQPPGKGLEWIGYIYYSGSTNYNPSLKSRVTISVDTSKNQFSLKLSSVTAADTAVYYCARMWEILGFDPWGQGTLVTVSSGGGGSEVQLVESGGGLVQAGGSLRLSCAASGRPFSNYGMGWFRQAPGKKREFVAGISWSGGSTDYADSVKGRFTISRDNAKNTVYLQMNSLKPEDTAVYYCAAVFSGAETAYYPSDDYDYWGQGTQVTVSSAAAEPEA
### Response 0.0013
